B1: RHOBTB3 (parent)
chain: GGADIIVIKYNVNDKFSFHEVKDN

variants of: B1; assay: protein stability index of a GFP-peptide fusion (GPS, HEK-293T) (PSI 1-6); higher = more stable; conditions: c terminus: a fixed tail appended;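 further: lentivirally expressed fusions sorted by FACS into six bins by GFP to DsRed ratio, PSI derived from sequencing read proportions per bin multiplied by bin number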
quantityName: protein stability index
Answer with the value's number alone.

Recorded results for 10 variants are shown here.
{"polymerSequence": "VGADIIVIKYNVNDKFSFHEVKDN", "quantityName": "protein stability index", "dataValue": 2.1}
{"polymerSequence": "FGADIIVIKYNVNDKFSFHEVKDN", "quantityName": "protein stability index", "dataValue": 2.69}
{"polymerSequence": "GGADIIVKKYNVNDKFSFHEVKDN", "quantityName": "protein stability index", "dataValue": 3.96}
{"polymerSequence": "GGADIIVVKYNVNDKFSFHEVKDN", "quantityName": "protein stability index", "dataValue": 1.81}
{"polymerSequence": "GGADIIVIKYNVNDKFSFHEVKDC", "quantityName": "protein stability index", "dataValue": 2.34}
{"polymerSequence": "GGADIIVIKYNVNDKYSFHEVKDN", "quantityName": "protein stability index", "dataValue": 2.62}
{"polymerSequence": "GGADIIVIKYNVNDKFSFHKVKDN", "quantityName": "protein stability index", "dataValue": 1.88}
{"polymerSequence": "GGADIQVIKYNVNDKFSFHEVKDN", "quantityName": "protein stability index", "dataValue": 3.98}
{"polymerSequence": "GGADIIVIKYNVNDKISFHEVKDN", "quantityName": "protein stability index", "dataValue": 2.88}
{"polymerSequence": "GFADIIVIKYNVNDKFSFHEVKDN", "quantityName": "protein stability index", "dataValue": 3.68}

Data point: "GGADIIVIKYNVNDKFSFHLVKDN" ; protein stability index = 2.02

Data point: "GGADHIVIKYNVNDKFSFHEVKDN" ; protein stability index = 2.39
